Target: T1, Human PD-1 expressed on CHO-K1 cells (CHO-K1/hPD-1) (human, UniProt Q15116 25-288)
T1 construct: whole, on cells; also called CHO-K1 cells overexpressing human PD-1
T1 sequence (Q15116 25-288): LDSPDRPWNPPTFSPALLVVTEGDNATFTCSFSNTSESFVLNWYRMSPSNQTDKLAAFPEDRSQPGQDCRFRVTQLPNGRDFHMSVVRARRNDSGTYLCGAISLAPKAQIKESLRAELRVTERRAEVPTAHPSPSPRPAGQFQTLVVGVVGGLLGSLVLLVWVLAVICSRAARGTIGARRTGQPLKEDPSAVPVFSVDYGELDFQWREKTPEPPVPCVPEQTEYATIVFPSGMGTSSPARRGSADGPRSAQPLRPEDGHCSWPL
Assay: FACS blocking of biotin-labeled human PD-L1 binding to CHO-K1-hPD-1 cells
pIC50: −log10 of the molar value.
recordedMetric: pIC50

# binder, assayValue
data = [
    ("PR000674 (antibody, human IgG4 S228P, kappa, V domains shown, Fully human recombinant H2L2 antibody, human IgG4, kappa light chain; also called 4004_12H9C1) VH: QVQLVESGGGVVQPGKSLRLSCTVSGLTFSDNGMHWVRQAPGRGLEWMSVIWYDGSKKYYADSVKGRFTISRDNSKNTLYLQMNNMRVEDTAVYYCATNSDYWGQGTLVTVSS VL: EIVLTQSPATLSLSPGERATLSCRASQSVSSYLAWYQQKPGQAPRLLIYDTSKRATGIPARFSGSGSGTDFTLTISSLEPEDFAVYYCQQHNNWIFTFGPGTKVDIKR", 9.11),
    ("PR002475 (antibody, human IgG1, V domains shown, Heavy-chain-only antibody (HCAb), human IgG1 Fc; two heavy chains, no light chain; also called R4004P547D9) VH: EVQLVETGGGLIQPGGSLRLSCAASGFNVSSNYMSWVRQAPGKGLEWVSIIHSGGSTYYADSVKGRFTISRDNSKNTLYLQMNSLRAEDTAVYYCARAIAVAEKNGYNYPFNYWGQGTLVTVSS", 7.43),
    ("PR002473 (antibody, human IgG1, V domains shown, Heavy-chain-only antibody (HCAb), human IgG1 Fc; two heavy chains, no light chain; also called R4004P541H11) VH: EVQLVETGGGLIQPGGSLRLSCAASGFNVSSHYMSWVRQAPGKGLEWVSIIHSGGSTYYADSVKGRFTISRDNSKNRLYLQMNSLIAEDTAVYYCARAIAVAEKNGYNYPFNYWGQGTLVTVSS", 8.32),
    ("PR002478 (antibody, human IgG1, V domains shown, Heavy-chain-only antibody (HCAb), human IgG1 Fc; two heavy chains, no light chain; also called R4004P548A8) VH: EVQLVETGGGLIQPGGSLRLSCAASGFNVSSNYMSWVRQAPGKGLEWVSIIHSGGSTYYADSVKGRFTISRDNSKNRLYLQMNSLRAEDTAVYYCARAIAVAEKNGYNYPFNYWGQGTLVTVSS", 7.26),
    ("PR002481 (antibody, human IgG1, V domains shown, Heavy-chain-only antibody (HCAb), human IgG1 Fc; two heavy chains, no light chain; also called R4004P556D1; anti-PD1 R4004P556D1 HCAb hG1) VH: EVQLVETGGGLIQPGGSLRLSCAASGFNVSSHYMSWVRQAPGKGREWVSIIDGGGSTYYADSVKGRFTISRDNSKNRLYLQMNSLRAEDTAMYYCARATAVAEKNGYNYPFNYWGQGTLVTVSS", 8.05),
    ("PR000673 (antibody, human IgG4 S228P, kappa, V domains shown, Fully human recombinant H2L2 antibody, human IgG4, kappa light chain; also called 4004_10H9A12) VH: QVQLVESGGGVVQPGRSLRLSCAASGFIFSNYGMHWVRQAPGKGLEWVAVIWYDGSKKYYGDSVKGRFTISRDNSKNTLYLQMNSLRDEDTAVYFCARNDDYWGQGTLVTVSS VL: EIVLTQSPATLSFSPGERATLSCRASQSVSSDLAWYQQKPGQAPSLLIYDASNRATGIPARFSGSGSGTDFTLTISSLEPEDFAVYYCHQRNNWPLTFGGGTKVEIKR", 9.40),
    ("PR002474 (antibody, human IgG1, V domains shown, Heavy-chain-only antibody (HCAb), human IgG1 Fc; two heavy chains, no light chain; also called R4004P547D3) VH: EVQLVETGGGLIQPGGSLRLSCAASGFNVSSHYMSWVRQAPGKGLEWVSIIHSGGSTYYADSVKGRFTISRDNSKNRLYLQMNSLRADDTAVYYCARATAVAEKNGYNYPFNYWGQGTLVTVSS", 8.05),
    ("PR000679 (antibody, human IgG4 S228P, kappa, V domains shown, Fully human recombinant H2L2 antibody, human IgG4, kappa light chain; also called 4004_6C11C6) VH: QVQLVQSGTEVKKPGSSVKVSCKASGGTFSSYAISWVRQAPGQGLEWMGGIIPIFDTVSSAQKFQGRVTITADKSTSTAYMELFSLRSEDTAVYYCARSPPYSSNWYQYFQHWGQGTLVTVSS VL: DIQMTQSPSTLSASVGDRVTITCRASQTISIWLAWYQQKPGKAPKLLIYKASSLESGVPSRFSGSGSGTEFTLTISSLQPDDFATYYCQQFNSYWTFGQGTKVEIKR", 9.36),
    ("PR000676 (antibody, human IgG4 S228P, kappa, V domains shown, Fully human recombinant H2L2 antibody, human IgG4, kappa light chain; also called 4004_1A7A1) VH: QIQLVESGGGVVQPGRSLRLSCAASGFTLSSYGMHWVRQAPGKGLEWVAVILSDGSNKYYADSVKGRFTISRDNSKNTLYLQMNSLRAEDTAVYYCADLGGDVWGQGTTVTVSS VL: EIVLTQSPATLSLSPGERATLSCRASQSVSSYLAWYQQKPGQAPRLLIYDASTRATGIPARFSGSGSGTDFTLTISSLEPEDFAVYYCQQRSNWPLTFGGGTKVEIKR", 7.59),
    ("PR002477 (antibody, human IgG1, V domains shown, Heavy-chain-only antibody (HCAb), human IgG1 Fc; two heavy chains, no light chain; also called R4004P547H9) VH: EVQLVETGGGLIQPGGSLRLSCAASGFNVSSHYMSWVRQAPGKGLEWVSIIHSGGSTYYADSVKGRFTISRDNSKNRLYLQMNSLRAEDTAVYYCARAIAVAEKNGYNYPFNYWGQGTLVTVSS", 8.11),
    ("PR002479 (antibody, human IgG1, V domains shown, Heavy-chain-only antibody (HCAb), human IgG1 Fc; two heavy chains, no light chain; also called R4004P551D6) VH: EVQLVETGGGLIQPGGSLRLSCAASGFNVSSHYMSWVRQAPGKGLEWVSIIHSGGSTYYADSVKGRFTISRDNSKNRLYLQMNSLRAEDTAVYYCARATAVAEENGYNYPFNYWGQGTLVTVSS", 7.79),
    ("PR002476 (antibody, human IgG1, V domains shown, Heavy-chain-only antibody (HCAb), human IgG1 Fc; two heavy chains, no light chain; also called R4004P547H11) VH: EVQLVETGGGLIQPGGSLRLSCAASGFNVSSHYMSWVRQAPGKGLEWVSIIHSGGSTYYADSVKGRFTISRDNSKNRLYLQMNSLRAEDTAVYYCARATAVAEKNGYNYPFNYWGQGTLVTVSS", 7.99),
    ("PR000675 (antibody, human IgG4 S228P, kappa, V domains shown, Fully human recombinant H2L2 antibody, human IgG4, kappa light chain; also called 4004_19G8F2) VH: EVQLLESGGGLVQPGGSLRLSCVDSGFTFSSYAMTWVRQAPGKGLEWVSGISGSGYSTYYADSVKGRFTISRDNSKKTLYLQMNSLRAEDTAVYYCAELSLDYWGQGTLVTVSS VL: EIVLTQSPATLSLSPGERATLSCRASQSVSRYLAWYQQKPGQAPRLLMHDAANRATGLPARFNGSGSGTDFTLTISSLEPEDFAVYYCQQRNNWPLTFGGGTKVEIKR", 7.91),
]
